Values from PubChem BioAssay (NCI)

# Tested on: NCI-H226 lung
# method description: NCI tumour cell line growth inhibition, 48 h

| compound | result modifier | TGI / µM |
| --- | --- | --- |
| O=C1CSC(c2ccc([N+](=O)[O-])cc2)N1c1ccc(-n2c(-c3ccccc3)nc3ccccc3c2=O)cc1 (stereo not given) | > | 100 |
| O=C(O)C1OC1(c1cccc(Cl)c1)c1ccccc1Cl (stereo not given) | = | 83.8 |
| O=C(Nc1cccc(-n2cc(-c3ccncc3)c(-c3cc(O)cc(Cl)c3)n2)c1)Nc1ccc(Cl)c(C(F)(F)F)c1 | = | 8.96 |
| C(=N\NC1=NCCN1)/c1ccc(-c2cn3cc(/C=N/NC4=NCCN4)ccc3n2)cc1 | > | 100 |
| O=C1NCc2ccccc2S(=O)(=O)n2cccc21 | > | 100 |

###

Quick reference: TGI of the listed items.
# Test system: UO-31 renal
# method description: NCI tumour cell line growth inhibition, 48 h
observation type: TGI

| smi | tested target | readout value |
| --- | --- | --- |
| O=C(Nc1cccc(-n2cc(-c3ccncc3)c(-c3cc(O)cc(Cl)c3)n2)c1)Nc1ccc(Cl)c(C(F)(F)F)c1 | UO-31 renal | 6.14 µM |
| CN1CNc2nc(N)n(C)c(=O)c2C1 | UO-31 renal | > 10 µM |
| CCOC(=O)c1c2c(n(Cc3ccc(Cl)cc3Cl)c1C)-c1nc[nH]c1C(=O)C2=O | UO-31 renal | 49.5 µM |
| CCOC(=O)c1nc2ccccc2nc1NCc1cc(OC)c(OC)c(OC)c1 | UO-31 renal | > 100 µM |
| COc1cccc(-n2nc(C)c3c(N/N=C(\C)c4ccncc4)ncnc32)c1 | UO-31 renal | > 25 µM |
| NC(=O)c1cc2ccc(O)cc2oc1=Nc1ccccc1 | UO-31 renal | > 100 µM |

###

# Tested on: OVCAR-5 ovarian
# method description: NCI tumour cell line growth inhibition, 48 h; in the data active = GI50 below about 0.43 µM; inactive = the rest
Classes used: active, inactive

| molecule | class name |
| --- | --- |
| COc1cc2c3c(n(CCCCN)c(=O)c2cc1OC)-c1cc2c(cc1C3=O)OCO2 | inactive |
| Cc1cc(C(=C2C=CC(=Nc3ccccc3)C=C2)c2ccc(Nc3ccccc3)cc2)ccc1N | active |
| CNCCCn1c2c(c3ccc([N+](=O)[O-])cc3c1=O)C(=O)c1cc(OC)cnc1-2 | active |
| O=C(Nc1ccncc1)C(=O)c1cn(Cc2ccc(Cl)cc2)c2ccccc12 | active |
| CCOC(=O)c1cc2c(n1Cc1cccc(OC)c1)-c1oncc1CCC2 | inactive |
| CNC(=O)c1cccc2cc(Oc3ccnc4cc(OCC5(N)CC5)c(OC)cc34)ccc12 | inactive |
| O=S(=O)(Nc1ccc(Br)c(Cl)c1)c1ccc(-c2cnc(C3CC3)o2)cc1 | inactive |
| O=c1ccn(C2CC(O)C(CO)O2)c(=O)[nH]1 (stereo not given) | inactive |
| O=C1C(N2CC2)=C(N2CC2)C(=O)C(N2CC2)=C1N1CC1 | inactive |
| c1csc(-c2cn3nc(-c4c[nH]c5ccccc45)sc3n2)c1 | inactive |
| COc1cc(Nc2c(C#N)cnc3cc(OCCCN4CCN(C)CC4)c(OC)cc23)c(Cl)cc1Cl | inactive |
| O=C(Nc1cccc(-n2cc(-c3ccncc3)c(-c3cc(O)cc(Cl)c3)n2)c1)Nc1ccc(Cl)c(C(F)(F)F)c1 | inactive |
| CCN(Cc1ccc(F)cc1)c1ccc(CO)c(F)c1 | inactive |
| COc1cccc2c1C(=O)c1c(O)c3c(c(O)c1C2=O)CC(O)(C(O)CO)CC3OC1CC(N2CCOCC2)C(O)C(C)O1 (stereo not given) | active |
| Cc1cc(NCCN(C(C)C)C(C)C)nc(/N=C(\N)Nc2ccc(Cl)c(C(F)(F)F)c2)n1 | inactive |

###

# System: RPMI-8226 leukemia
# method description: NCI tumour cell line growth inhibition, 48 h
Quick reference: TGI of the listed items.

| compound | result modifier | TGI (µM) |
| --- | --- | --- |
| Nc1ccccc1S(=O)(=O)c1ccccc1 | > | 100 |
| CCOC1=C2C(=O)OC(=O)C2C2CCCCC2=C1 (stereo not given) | > | 100 |
| COc1cc2oc3cc(=O)cc4oc(-c5ccccc5)cc(c2c2c1CCC(c1ccccc1)O2)c43 (stereo not given) | = | 20.9 |
| COC1=CC(c2ccc[nH]2)=N/C1=C\c1[nH]c(C)c(C(=O)CCCCC(=O)NC(C)(C)C)c1C | = | 1.64 |
| CCN(Cc1ccc(F)cc1)c1ccc(CO)c(F)c1 | = | 33.7 |
| CCOc1ccc(/C(Cl)=C(\C=O)c2ccc(OC)c(OC)c2)cc1OCC | > | 100 |
| CN(C)CCCNc1ccc([N+](=O)[O-])c2nc3ccccc3c(N)c12 | = | 2.14 |
| CCn1c(-c2ccc(N=NNc3ccc(-c4n[nH]c(=S)n4CC)cc3)cc2)n[nH]c1=S | = | 5.64 |
| Cc1c(N2C(=O)CS(=O)(=O)C2c2cccc(Oc3ccccc3)c2)c(=O)n(-c2ccccc2)n1C (stereo not given) | = | 74.4 |
| O=C1C(N2CC2)=C(N2CC2)C(=O)C(N2CC2)=C1N1CC1 | = | 17.2 |

###

# System: SW-620 colon
# method description: NCI tumour cell line growth inhibition, 48 h

| compound | tested target | TGI |
| --- | --- | --- |
| COc1ccc2c3c1O[C@H]1C(OC)C=CC4C(C2)N(Cc2cccs2)CCC341 (some centres undefined) | SW-620 colon | > 100 µM |
| CN(C)CCCNc1ccc([N+](=O)[O-])c2nc3ccccc3c(N)c12 | SW-620 colon | 1.63 µM |
| Cc1nn(-c2ccccc2)c(C)c1/C=N/N=C1\SCC(=O)N1c1ccccc1 | SW-620 colon | > 100 µM |
| CCn1cc(C(=O)N/N=C/c2ccccc2)c(=O)c2cc(F)c(N3CCNC(C)C3)c(F)c21 (centres undefined) | SW-620 colon | 3.31 µM |
| Cc1ccc(SSc2ccc(C)cc2C(=O)O)c(C(=O)O)c1 | SW-620 colon | > 100 µM |
| CC1(N)CCN(c2cccnc2NC(=O)c2nc(-c3ncccc3C(F)(F)F)cnc2N)CC1 | SW-620 colon | > 100 µM |
| COc1cccc([C@H]2C/C(=N\NC(=O)C(=O)N[C@@H](C)c3ccccc3)c3ccccc3N2)c1 | SW-620 colon | > 100 µM |
| C[C@H](CCC(=O)O)[C@H]1CC[C@@]2(C)[C@@H]3C(=O)C[C@H]4C(C)(C)[C@@H](O)CC[C@]4(C)[C@H]3C(=O)C[C@]12C | SW-620 colon | > 100 µM |
| O=C1NC(=S)N/C1=C\c1ccc(Br)s1 | SW-620 colon | > 100 µM |

###

# Tested on: HOP-92 NSCLC
# method description: NCI tumour cell line growth inhibition, 48 h
Parameter class (string): assigned from measured TGI. Ranges: low range (below 8 µM), mid range (8 µM to below 40 µM), high range (40 µM or more)

| compound | tested target | class name |
| --- | --- | --- |
| C=CCNC(=O)N(CCCC(NC(C)=O)C(=O)NCc1ccccc1)Cc1ccccc1 (centres undefined) | HOP-92 NSCLC | high range |
| O=C(/C=C/c1ccc(O)c(-c2cc(C(=O)/C=C/c3ccc(O)cc3)c(O)cc2O)c1)c1ccc(O)cc1O | HOP-92 NSCLC | high range |
| COc1cccc(-c2nn(-c3ccccc3)cc2-c2ccnc(NCCCNC(=O)Nc3ccc(Cl)c(Cl)c3)c2)c1 | HOP-92 NSCLC | low range |
| O=c1oc(Cl)c(Cl)c2ccccc12 | HOP-92 NSCLC | mid range |
| C=CCOC(=O)NC1C(OC(C)[C@@H](NC(=O)OCc2ccccc2)C(=O)OC(C)(C)C)OC(COC(C)=O)C(OC(C)=O)C1OC(C)=O (some centres undefined) | HOP-92 NSCLC | high range |
| COC(=O)C(C#CCCCCC#CC(NC(=O)OCc1ccccc1)(C(=O)OC)C(F)(F)F)(NC(=O)OCc1ccccc1)C(F)(F)F (centres undefined) | HOP-92 NSCLC | high range |
| CC(=O)NNc1nc(C)c(C(=O)/C=C/c2ccccc2Cl)s1 | HOP-92 NSCLC | high range |
| COc1cc(NC(C)CCCN)c2ncccc2c1 (centres undefined) | HOP-92 NSCLC | high range |
| O=C(/C=C/c1ccccc1)NNC(=O)c1c(Cl)c(Cl)c(Cl)c(Cl)c1-c1nc2ccccc2[nH]1 | HOP-92 NSCLC | high range |
| CCCCC[C@H]1C/C=C2/C(=O)C=C[C@@H]2C/C=C\CCCC(=O)O[C@@H](CCCCC)C/C=C2/C(=O)C=C[C@@H]2C/C=C\CCCC(=O)O1 | HOP-92 NSCLC | low range |
| c1ccc(CN2CCC3(CC2)SSC2(CCN(Cc4ccccc4)CC2)S3)cc1 | HOP-92 NSCLC | high range |
| C/C=C\C(CC(=O)NCCC1CN(S(=O)(=O)c2ccc(C)cc2)c2ccccc21)CC(=O)OC (centres undefined) | HOP-92 NSCLC | high range |
| CN(C)C(=S)/N=c1\ssc(=S)n1Cc1ccccc1 | HOP-92 NSCLC | low range |
| CCC12CCCN(Cc3ccccc3)C1c1c(n(C)c3ccccc13)C(C(=O)OC)C2 (centres undefined) | HOP-92 NSCLC | high range |
| Nc1cccc(/C=C/C(=O)N2CCN(CCOC(c3ccccc3)c3ccccc3)CC2)c1 | HOP-92 NSCLC | mid range |
| COc1cccc(-n2nc(C)c3c(N/N=C(\C)c4ccncc4)ncnc32)c1 | HOP-92 NSCLC | mid range |
| COc1ccc2c(c1)[nH]c1c(/C=C/c3ccccc3)nccc12 | HOP-92 NSCLC | high range |
| CC1=NN(c2cccc(Cl)c2)C2(SCC(=O)N2c2nc3ccccc3s2)/C1=C\c1cccs1 (centres undefined) | HOP-92 NSCLC | high range |
| O=C1C2C3C=C4c5ccccc5N(c5ccccc5)C4(C2C(=O)N1c1ccc(Cl)cc1)[C@H]1C(=O)N(c2ccc(Cl)cc2)C(=O)[C@@H]31 (some centres undefined) | HOP-92 NSCLC | high range |
